# pIC50 values compiled below
system: Endogenous Huntingtin Protein; assay: Endogenous Huntingtin Protein Assay (ELISA-based MSD electrochemiluminescence); type: cell-based; settings: Table 1
pIC50: −log10 of the molar value.
propertyMeasured: pIC50

> print(dat)
                                    compound  propertymeasured   assayresult
 1  Cc1cn2cc(-c3ccc4nc(N(C)C5CC(C)(C)NC(C)(C)C5)sc4c3)cc(C)c2n1             pIC50        ≥ 7.00
 2  Cn1cc2cc(-c3cc4sc(C5CCNCC5)nc4cn3)cc(C#N)c2n1             pIC50        ≥ 7.00
 3  Cc1cn2cc(-c3cc4sc(N(C)C5CC(C)(C)NC(C)(C)C5)nc4cn3)nc2c(C)n1             pIC50        ≥ 7.00
 4  Cc1cn2cc(-c3cc4sc(C5CCNCC5)nc4cn3)ccc2n1             pIC50  6.30 to 7.00
 5  Cc1cn2nc(-c3cc(F)c4nc(N(C)C5CCNCC5)sc4c3)cc(C)c2n1             pIC50        ≥ 7.00
 6  Cn1cc2cc(-c3ccc4nc(C5CCNC(C)(C)C5)sc4c3)ccc2n1 (stereo not drawn)             pIC50  6.00 to 6.30
 7  Cc1nc2ccc(-c3ccc4nc(N(C)C5CC(C)(C)NC(C)(C)C5)sc4c3)nn2n1             pIC50  6.30 to 7.00
 8  Cn1cc2cc(-c3cc4sc(C5CCNCC5)nc4cn3)cc(F)c2n1             pIC50  6.30 to 7.00
 9  Cc1cn2cc(-c3cc4sc(NC5CC6CCC(C5)N6)nc4cn3)cc(C#N)c2n1 (stereo not drawn)             pIC50        ≥ 7.00
10  Cc1cc(-c2cc(O)c3nc(C4=CCNCC4)sc3c2)cc2cn(C)nc12             pIC50  6.00 to 6.30
11  COc1cc(-c2cc(F)c3nc(C4=CCNCC4)sc3c2)nn2cc(C)nc12             pIC50        ≥ 7.00
12  Cc1cn2cc(-c3cc4sc(N(C)C5CC(C)(C)NC(C)(C)C5)nc4cn3)cc(C#N)c2n1             pIC50        ≥ 7.00
13  Cc1cn2cc(-c3cnc4nc(N(C)C5CC(C)(C)NC(C)(C)C5)sc4n3)cc(C#N)c2n1             pIC50        ≥ 7.00
14  CN1[C@@H]2CC[C@H]1C[C@H](Nc1nc3cnc(-c4cc(F)c5nn(C)cc5c4)cc3s1)C2             pIC50  5.52 to 6.00
15  Cc1cc(-c2nc3ccc(C4=CCNCC4)cc3s2)cc2cn(C)nc12             pIC50  6.30 to 7.00
16  Cc1cc(-c2ccc3nc(C4CCNCC4)sc3c2)cc2cn(C)nc12             pIC50        ≥ 7.00
17  CN(c1nc2cnc(-c3cc(F)c4nn(C)cc4c3)nc2s1)C1CC2CCC(C1)N2 (stereo not drawn)             pIC50  6.30 to 7.00
18  CN1CCC2(CC1)CCN2c1nc2nnc(-c3ccc(-c4cn[nH]c4)cc3O)cc2s1             pIC50        ≥ 7.00
19  Cc1cc2nc(-c3cc(F)c4nc(N(C)C5CCNCC5)sc4c3)ccn2n1             pIC50  6.30 to 7.00
20  CN(c1nc2cnc(-c3cc(C#N)c4nn(C)cc4c3)cc2s1)C1CC2CCCC(C1)N2C (stereo not drawn)             pIC50  6.30 to 7.00
21  Cc1cn2cc(-c3cc4sc(N(C)C5CC6CCCC(C5)N6C)nc4cn3)cc(F)c2n1 (stereo not drawn)             pIC50  6.30 to 7.00
22  Cc1cn2cc(-c3cc(F)c4nc(C5=CCNCC5)sc4c3)nc(C)c2n1             pIC50  6.30 to 7.00
23  Cc1cc(-c2cnc3nc(N(C)C4CCNCC4)sc3c2)cc2cn(C)nc12             pIC50  6.00 to 6.30
24  CCN(c1nc2cnc(-c3cc(F)c4nc(C)cn4c3)nc2s1)C1CC(C)(C)NC(C)(C)C1             pIC50  6.30 to 7.00
25  Oc1cc(-c2cn[nH]c2)ccc1-c1cc2sc(N3CCNCC3)nc2nn1             pIC50  6.30 to 7.00
26  CN1C[C@H](F)[C@@H](N(C)c2nc3nnc(-c4ccc(-c5cn[nH]c5)cc4O)cc3s2)C1             pIC50  6.30 to 7.00
27  Cn1cc2cc(-c3ccc4nc(NC5CCNCC5)sc4c3)ccc2n1             pIC50  6.30 to 7.00
28  Cc1cn2cc(-c3ccc4nc(N(C)C5CC6CCC(C5)N6)sc4n3)cc(F)c2n1 (stereo not drawn)             pIC50  6.30 to 7.00
29  CN(c1nc2ccc(-c3cc(F)c4nn(C)cc4c3)nc2s1)C1CC2(C)CCC(C)(C1)N2 (stereo not drawn)             pIC50  6.30 to 7.00
30  Cn1cc2cc(-c3nc4ccc(C5CCNCC5)cc4s3)ccc2n1             pIC50  6.00 to 6.30
31  CN(c1nc2nnc(-c3ccc(-c4cn[nH]c4)cc3O)cc2s1)C1CCN(CCO)CC1             pIC50        ≥ 7.00
32  Cc1cn2cc(-c3cc4sc(N(C)[C@@H]5C[C@H]6CC[C@@H](C5)N6C)nc4cn3)cc(C#N)c2n1             pIC50  6.30 to 7.00
33  Cn1cc2cc(-c3ccc4nc(C5CC(C)(C)NC(C)(C)C5)sc4c3)ccc2n1             pIC50  5.52 to 6.00
